# System: 324938-238-R-J1-PDC complex spheroid growth, % test/control;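 note: spheroids exposed to agents for seven days before viability read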
# measurement.description: Anticancer human tumor 324938-238-R-J1-PDC patient-derived bladder carcinoma cell line growth inhibition [AhR]; active = viability on the fitted dose curve at most 10% of control; inactive = the rest
# measurement.conditions: second compound 10 µM; first compound 0.003 µM
Outcomes: TRUE = active, FALSE = inactive

compound	label.class
CC(C)CC(NC(=O)C(Cc1ccccc1)NC(=O)c1cnccn1)B(O)O (stereo not drawn) + Cc1cncc(-c2nc(NCCc3c[nH]c4ccccc34)c3ncn(C(C)C)c3n2)c1	TRUE
Nc1ncn(C2CC(O)C(CO)S2)c(=O)n1 (stereo not drawn) + CC(CO)NC(=O)c1cc(-c2ccc(Cl)cc2)nn(-c2cnn(C)c2)c1=O	FALSE
CCc1c2c(nc3ccc(O)cc13)-c1cc3c(c(=O)n1C2)COC(=O)[C@]3(O)CC + CC(CO)NC(=O)c1cc(-c2ccc(Cl)cc2)nn(-c2cnn(C)c2)c1=O	FALSE
